measured.on: Solute carrier family 12 member 5 (Homo sapiens) (UniProt Q9H2X9)
Sequence (Q9H2X9 whole entry, looked up): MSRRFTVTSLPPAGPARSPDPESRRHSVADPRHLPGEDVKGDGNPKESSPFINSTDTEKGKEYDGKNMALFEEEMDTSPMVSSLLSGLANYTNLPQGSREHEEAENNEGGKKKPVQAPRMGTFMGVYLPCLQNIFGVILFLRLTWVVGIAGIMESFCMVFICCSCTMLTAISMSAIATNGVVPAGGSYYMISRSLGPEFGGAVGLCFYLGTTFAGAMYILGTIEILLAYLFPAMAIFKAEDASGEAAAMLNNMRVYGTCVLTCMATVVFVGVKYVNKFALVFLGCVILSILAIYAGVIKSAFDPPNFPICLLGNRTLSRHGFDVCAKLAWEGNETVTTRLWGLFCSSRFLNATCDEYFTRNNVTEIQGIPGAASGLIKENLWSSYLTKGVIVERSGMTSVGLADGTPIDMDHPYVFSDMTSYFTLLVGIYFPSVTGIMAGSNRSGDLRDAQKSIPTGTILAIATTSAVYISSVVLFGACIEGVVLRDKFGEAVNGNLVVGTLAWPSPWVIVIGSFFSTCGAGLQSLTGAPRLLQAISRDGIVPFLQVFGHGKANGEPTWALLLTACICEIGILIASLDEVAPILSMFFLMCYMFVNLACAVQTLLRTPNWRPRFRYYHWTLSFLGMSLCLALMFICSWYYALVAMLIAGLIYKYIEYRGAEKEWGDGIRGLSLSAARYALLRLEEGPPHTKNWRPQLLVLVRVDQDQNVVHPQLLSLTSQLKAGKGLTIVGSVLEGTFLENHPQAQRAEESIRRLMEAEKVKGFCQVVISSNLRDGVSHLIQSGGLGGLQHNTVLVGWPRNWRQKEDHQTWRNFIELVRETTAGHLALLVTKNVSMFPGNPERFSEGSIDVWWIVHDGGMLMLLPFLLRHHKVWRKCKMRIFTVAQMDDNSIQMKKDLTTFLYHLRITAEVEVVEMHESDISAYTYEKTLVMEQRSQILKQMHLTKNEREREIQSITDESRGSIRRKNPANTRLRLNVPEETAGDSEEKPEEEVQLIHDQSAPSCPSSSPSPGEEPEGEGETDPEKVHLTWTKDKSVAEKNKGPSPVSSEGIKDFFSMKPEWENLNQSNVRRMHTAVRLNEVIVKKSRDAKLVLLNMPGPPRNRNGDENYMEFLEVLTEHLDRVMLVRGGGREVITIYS
test.protocol: modulation of human KCC2 ion transport – cell-based, HEK293 KCC2, FluoZin-2 fluorescence, MLSMR, primary screen (AID 1456);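 also: slope of fluorescence scaled to starting intensity during 10 to 20 s after thallium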
experimental.conditions: KCC2 cells, thallium flux FluoZin-2 fluorescence; at 10 µM
The campaign covered roughly 190,000 compounds. About 4,100 (2.2%) were called active. The sample as a whole holds a higher share of actives than the screen did.
Hi, to clarify the labels: yes (1) covers B-score of Tl+ flux slope (higher = more flux/activation; lower = inhibition) from -0.3 upward, no (0) covers anything below -0.3.

Example entries begin here.
COc1ccc(Oc2c(Cl)cnn(-c3ccccc3)c2=O)cc1    no (0)
COc1ccc(/C=C/C(=O)c2cc(Br)ccc(=O)c2O)cc1    yes (1)
CCOC(=O)C1C(c2ccc(Cl)cc2)NC(=S)NC1(O)C(F)(F)F (stereo not given)    yes (1)
Cc1ccc(-c2nc(SCC(=O)Nc3ccccc3OC(F)F)c3c(C)c(C(=O)O)sc3n2)cc1    no (0)
Nc1nc(Sc2ncccc2[N+](=O)[O-])n[nH]1    no (0)

Req: Check the entry `O=C(c1ccncc1)N1CCN(c2ccc3ccccc3n2)CC1` : does B-score of Tl+ flux slope (higher = more flux/activation; lower = inhibition) equal or exceed -0.3?
Resp: no (0)

Req: Decide: B-score of Tl+ flux slope (higher = more flux/activation; lower = inhibition) of `S=c1[nH]nc(-c2ccncc2)n1/N=C/c1ccccc1Cl` >= -0.3?
Resp: yes (1)

Req: Identify whether the reported B-score of Tl+ flux slope (higher = more flux/activation; lower = inhibition) of the following compound is -0.3 or greater: `COc1ccc2cc(CCl)c(Cl)nc2c1`
Resp: yes (1)

Req: Is B-score of Tl+ flux slope (higher = more flux/activation; lower = inhibition) for `Cc1ccc(Oc2cnn(-c3ccccc3)c(=O)c2Br)cc1` at or above -0.3?
Resp: no (0)

Req: Determine whether this compound has B-score of Tl+ flux slope (higher = more flux/activation; lower = inhibition) no lower than -0.3: `CC(C)N1CCC(=NNc2ccc([N+](=O)[O-])cc2S(=O)(=O)N2CCOCC2)CC1`
Resp: yes (1)

Req: Exam item: decide whether the reported B-score of Tl+ flux slope (higher = more flux/activation; lower = inhibition) for `O=C(NC1CCN(Cc2ccccc2)CC1)c1c(F)cccc1F` is at least -0.3.
Resp: no (0)

Req: Quick check: does CCOC(=O)C1=C(C)NC(=O)N(C(C)=O)C1c1ccc(Cl)cc1 (stereo not given) have B-score of Tl+ flux slope (higher = more flux/activation; lower = inhibition) greater than or equal to -0.3?
Resp: no (0)

Req: B-score of Tl+ flux slope (higher = more flux/activation; lower = inhibition) >= -0.3 for CCC1(C)Cc2c(sc3nc4n(c(=O)c23)CCCS4)CO1 (stereo not given) ?
Resp: yes (1)

Req: Check the entry CCC(C)NC(=O)CN(C1CCCCC1)S(C)(=O)=O (stereo not given) : does B-score of Tl+ flux slope (higher = more flux/activation; lower = inhibition) equal or exceed -0.3?
Resp: yes (1)

Req: B-score of Tl+ flux slope (higher = more flux/activation; lower = inhibition) >= -0.3 for `Cc1nc(Cl)c(C#N)c2c1CCCC2` ?
Resp: no (0)

Req: Quick check, B-score of Tl+ flux slope (higher = more flux/activation; lower = inhibition) >= -0.3? `COc1ccc(-n2c(C)nc3c(cnn3-c3ccccc3)c2=O)cc1`
Resp: no (0)

Req: Dear colleague, could you confirm whether `Fc1ccccc1/C=N/n1c(-c2cccnc2)n[nH]c1=S` has B-score of Tl+ flux slope (higher = more flux/activation; lower = inhibition) at or above -0.3?
Resp: yes (1)

Req: State whether the measured B-score of Tl+ flux slope (higher = more flux/activation; lower = inhibition) reaches -0.3, counting equality as reaching it, for `CCOc1c(Nc2cccc(Cl)c2)c(=O)c1=O`
Resp: yes (1)

Req: Decide: B-score of Tl+ flux slope (higher = more flux/activation; lower = inhibition) of `S=C(NN=C1CCN(Cc2ccccc2)CC1)NC1CCCCC1` >= -0.3?
Resp: no (0)

Req: Dear colleague, could you confirm whether CCC1(C)Cc2c(sc3[nH]c(=S)n(Cc4ccccc4)c(=O)c23)CO1 (stereo not given) has B-score of Tl+ flux slope (higher = more flux/activation; lower = inhibition) at or above -0.3?
Resp: yes (1)
